# procedure.text: Thermodynamic solubility assay (THESA), equilibrium solubility
# Format: physicochemical
# test.settings: 22 °C, aqueous buffer, thermodynamic from solid; 50 mM phosphate buffer (pH 6.5), room temperature (22±2° C.)
metric.name: solubility thermodynamic (µg/mL)

Examples from the recorded data:
Request: For the compound "CC[P@@](C)(=O)c1nc(N)c2[nH]c(=O)n(Cc3ccc(N4CCN(C)CC4)nc3)c2n1" , give its reported solubility thermodynamic.
Response: 2380

Request: Supply measured solubility thermodynamic of CCCS(=N)(=O)c1nc(N)c2[nH]c(=O)n(Cc3ccc(Cl)nc3)c2n1 (centres unmarked) [RO14, reference compound] in your reply.
Response: 33

Request: Report solubility thermodynamic for "CCC[P@@](C)(=O)c1nc(N)c2[nH]c(=O)n(Cc3ccc(NCCN(C)C)nc3)c2n1"
Response: 4020

Request: Identify solubility thermodynamic associated with the compound "CCP(=O)(CC)c1nc(N)c2[nH]c(=O)n(Cc3ccc(NCCN(C)C)nc3)c2n1"
Response: 2370

Request: Give reported solubility thermodynamic value for "CN(C)CCOc1ccc(Cn2c(=O)[nH]c3c(N)nc(P(C)(C)=O)nc32)cn1"
Response: 2780

Request: Provide only the value of recorded solubility thermodynamic for "CC[P@@](C)(=O)c1nc(N)c2[nH]c(=O)n(Cc3ccc(NCCN(C)C)nc3)c2n1"
Response: 4060

A = CCC[P@](C)(=O)c1nc(N)c2[nH]c(=O)n(Cc3ccc(NCCN(C)C)nc3)c2n1
B = CC[P@@](C)(=O)c1nc(N)c2[nH]c(=O)n(Cc3ccc(OCCN(C)C)nc3)c2n1
Request: Endpoint returns whichever of A and B has the numerically higher solubility thermodynamic. // return label of chosen record
Response: A
(A: 3000 µg/mL, B: 1900 µg/mL)

###

# procedure.text: Dissolution test in fed state simulated intestinal fluid (FeSSIF)
# Type: physicochemical
# test.settings: FeSSIF pH 5, room temperature
metric.name: FeSSIF (µg/mL)

Request: Return FeSSIF for the following compound: CCC[P@](C)(=O)c1nc(N)c2[nH]c(=O)n(Cc3ccc(NCCN(C)C)nc3)c2n1 [Example 18-A]
Response: 4536

1 = CC[P@@](C)(=O)c1nc(N)c2[nH]c(=O)n(Cc3ccc(OCCN(C)C)nc3)c2n1 [Example 16-A]
2 = CC[P@@](C)(=O)c1nc(N)c2[nH]c(=O)n(Cc3ccc(NCCN(C)C)nc3)c2n1 [Example 15-A]
Request: Hi there! Just curious which has the higher FeSSIF between 1 and 2 . State your choice using its label.
Response: 2

###

# procedure.text: Dissolution test in fed state simulated intestinal fluid (FeSSIF)
# Format: physicochemical
# test.settings: FeSSIF pH 5, room temperature
metric.name: FeSSIF (µg/mL)

Request: Check the records and state FeSSIF for "CC[P@@](C)(=O)c1nc(N)c2[nH]c(=O)n(Cc3ccc(N4CCN(C)CC4)nc3)c2n1"
Response: 4672

1 = CN(C)CCNc1ccc(Cn2c(=O)[nH]c3c(N)nc(P(C)(C)=O)nc32)cn1
2 = CN(C)CCOc1ccc(Cn2c(=O)[nH]c3c(N)nc(P(C)(C)=O)nc32)cn1
3 = CC[P@](C)(=O)c1nc(N)c2[nH]c(=O)n(Cc3ccc(OCCN(C)C)nc3)c2n1
Request: Sort the 3 compounds by FeSSIF; largest first, smallest last. Your reply should list the labels following the order given in the request.
Response: 2, 1, 3

###

# procedure.text: Lyophilisation solubility assay (LYSA), kinetic solubility
# Format: physicochemical
# test.settings: aqueous buffer; 0.05 M phosphate buffer (pH 6.5), from 10 mM DMSO stock after evaporation
Reported solubility kinetic by item:

Request: Report solubility kinetic for CC1(C)CN(c2ccc(Cn3c(=O)[nH]c4c(N)nc(P(C)(C)=O)nc43)cn2)CCN1 [Example 4]
Response: > 640 µg/mL

Request: Identify measured solubility kinetic associated with CN(C)CC1CCN(c2ccc(Cn3c(=O)[nH]c4c(N)nc(P(C)(C)=O)nc43)cn2)C1 (stereo not shown) [Example 9]
Response: > 650 µg/mL

Request: Please indicate solubility kinetic recorded for CN(C)CCOc1ccc(Cn2c(=O)[nH]c3c(N)nc(P(C)(C)=O)nc32)cn1 [Example 2]
Response: > 540 µg/mL

Request: Item CCCS(=N)(=O)c1nc(N)c2[nH]c(=O)n(Cc3ccc(Cl)nc3)c2n1 (stereo not shown) [RO14, reference compound] : provide solubility kinetic
Response: 69 µg/mL

Request: Consider the compound CC[P@](C)(=O)c1nc(N)c2[nH]c(=O)n(Cc3ccc(OCCN(C)C)nc3)c2n1 [Example 16-B] and give its recorded solubility kinetic.
Response: > 560 µg/mL

Request: Identify the reported solubility kinetic for the following entry. CP(C)(=O)c1nc(N)c2[nH]c(=O)n(Cc3ccc(N4CC5CNCC5C4)nc3)c2n1 (stereo not shown) [Example 6]
Response: > 630 µg/mL

Request: Please look at this compound and report its solubility kinetic: CC[P@](C)(=O)c1nc(N)c2[nH]c(=O)n(Cc3ccc(N4CCN(S(C)(=O)=O)CC4)nc3)c2n1 [Example 14-B]
Response: 170 µg/mL

Request: Report measured solubility kinetic; entry is CCP(=O)(CC)c1nc(N)c2[nH]c(=O)n(Cc3ccc(NCCN(C)C)nc3)c2n1 [Example 19]
Response: > 580 µg/mL

Request: Please give measured solubility kinetic of the following entry: CN1CCC(Nc2ccc(Cn3c(=O)[nH]c4c(N)nc(P(C)(C)=O)nc43)cn2)C1 (stereo not shown) [Example 11]
Response: > 620 µg/mL

Request: Give a short answer stating reported solubility kinetic for CC[P@@](C)(=O)c1nc(N)c2[nH]c(=O)n(Cc3ccc(OCCN(C)C)nc3)c2n1 [Example 16-A] .
Response: > 560 µg/mL

In the following, a different compound is considered.
Request: Please supply the value of reported solubility kinetic for the item CC[P@@](C)(=O)c1nc(N)c2[nH]c(=O)n(Cc3ccc(N4CCN(S(C)(=O)=O)CC4)nc3)c2n1 [Example 14-A]
Response: 150 µg/mL

###

# procedure.text: Thermodynamic solubility assay (THESA), equilibrium solubility
# Format: physicochemical
# test.settings: 22 °C, aqueous buffer, thermodynamic from solid; 50 mM phosphate buffer (pH 6.5), room temperature (22±2° C.)
metric.name: solubility thermodynamic (µg/mL)

A = CC[P@](C)(=O)c1nc(N)c2[nH]c(=O)n(Cc3ccc(OCCN(C)C)nc3)c2n1 [Example 16-B]
B = CN(C)CCNc1ccc(Cn2c(=O)[nH]c3c(N)nc(P(C)(C)=O)nc32)cn1 [Example 1]
Request: Which record would sort first by descending solubility thermodynamic, A or B ? The response must carry the label of the picked entry.
Response: A

###

# assay.target: human TLR7 (Homo sapiens, UniProt Q9NYK1)
# Sequence (Q9NYK1 27-1049): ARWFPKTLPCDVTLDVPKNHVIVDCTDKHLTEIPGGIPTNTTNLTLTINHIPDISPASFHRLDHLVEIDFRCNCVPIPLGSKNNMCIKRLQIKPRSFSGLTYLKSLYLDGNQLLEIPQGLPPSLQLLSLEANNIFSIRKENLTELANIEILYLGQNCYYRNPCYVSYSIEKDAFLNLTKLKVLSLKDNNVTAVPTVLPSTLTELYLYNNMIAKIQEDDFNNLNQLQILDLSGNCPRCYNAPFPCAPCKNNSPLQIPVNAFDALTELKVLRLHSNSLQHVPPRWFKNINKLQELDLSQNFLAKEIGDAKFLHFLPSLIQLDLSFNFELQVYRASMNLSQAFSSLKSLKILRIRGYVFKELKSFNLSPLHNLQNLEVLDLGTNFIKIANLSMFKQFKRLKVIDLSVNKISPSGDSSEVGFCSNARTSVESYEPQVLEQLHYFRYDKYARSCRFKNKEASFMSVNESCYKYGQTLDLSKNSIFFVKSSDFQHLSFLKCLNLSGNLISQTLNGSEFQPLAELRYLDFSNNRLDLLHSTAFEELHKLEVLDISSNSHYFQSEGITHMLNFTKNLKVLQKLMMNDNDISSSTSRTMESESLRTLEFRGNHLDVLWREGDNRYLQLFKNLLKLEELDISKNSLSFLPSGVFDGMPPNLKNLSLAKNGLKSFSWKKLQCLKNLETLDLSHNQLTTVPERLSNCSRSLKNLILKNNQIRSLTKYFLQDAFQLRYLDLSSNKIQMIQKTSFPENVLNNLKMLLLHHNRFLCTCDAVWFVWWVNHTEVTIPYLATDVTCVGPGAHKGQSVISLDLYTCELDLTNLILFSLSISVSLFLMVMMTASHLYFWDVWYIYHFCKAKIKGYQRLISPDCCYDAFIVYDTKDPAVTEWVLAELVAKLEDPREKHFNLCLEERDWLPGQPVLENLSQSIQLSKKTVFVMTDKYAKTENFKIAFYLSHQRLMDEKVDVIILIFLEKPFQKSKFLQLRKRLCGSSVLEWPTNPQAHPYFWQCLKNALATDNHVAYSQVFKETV
# procedure.text: HEK293-Blue-hTLR7 cells assay (SEAP reporter, NF-κB activation)
pEC50: −log10 of the molar value.
metric.name: pEC50

Request: Provide only the value of recorded pEC50 for CP(C)(=O)c1nc(N)c2[nH]c(=O)n(Cc3ccc(N4CC5CCC4CN5)nc3)c2n1 (stereo not shown)
Response: 7.92

Request: Note down pEC50 recorded for "CC[P@](C)(=O)c1nc(N)c2[nH]c(=O)n(Cc3ccc(NCCN(C)C)nc3)c2n1"
Response: 7.92

Request: Please give the documented pEC50 of "CCP(=O)(CC)c1nc(N)c2[nH]c(=O)n(Cc3ccc(NCCN(C)C)nc3)c2n1"
Response: 8.05

Request: Query pEC50 for "CN(C)CCNc1ccc(Cn2c(=O)[nH]c3c(N)nc(P(C)(C)=O)nc32)cn1"
Response: 7.47

Request: Quote pEC50 reported for "CP(C)(=O)c1nc(N)c2[nH]c(=O)n(Cc3ccc(NC4CCOCC4)nc3)c2n1" please.
Response: 7.41

P = CC1(C)CN(c2ccc(Cn3c(=O)[nH]c4c(N)nc(P(C)(C)=O)nc43)cn2)CCN1
Q = CP(C)(=O)c1nc(N)c2[nH]c(=O)n(Cc3ccc(N4CCC(N)C4)nc3)c2n1 (stereo not shown)
Request: Of P versus Q , which is the one with smaller reported pEC50? # respond with the chosen item's label
Response: Q
(Q: 7.55, P: 8.00)

A = CN1CCOC2(CCN(c3ccc(Cn4c(=O)[nH]c5c(N)nc(P(C)(C)=O)nc54)cn3)CC2)C1
B = CP(C)(=O)c1nc(N)c2[nH]c(=O)n(Cc3ccc(NCCN4CCCC4)nc3)c2n1
Request: Of A versus B , which is the one with smaller reported pEC50? Your answer should be the label attached to the chosen record.
Response: B
(B: 7.42, A: 7.62)

1 = CC[P@@](C)(=O)c1nc(N)c2[nH]c(=O)n(Cc3ccc(NCCN(C)C)nc3)c2n1
2 = CCN(C)CCNc1ccc(Cn2c(=O)[nH]c3c(N)nc(P(C)(C)=O)nc32)cn1
3 = CC[P@@](C)(=O)c1nc(N)c2[nH]c(=O)n(Cc3ccc(NCCNC)nc3)c2n1
Request: Please rank these compounds by pEC50 in descending order. Answer by naming the labels in the order asked.
Response: 1, 3, 2
(1: 7.74, 3: 7.35, 2: 7.08)

Value source: patent US20250215032A1
